biological target: UniProtKB P48775; experiment: Assay for TDO2 enzymatic activity determination; assay type: biochemical; conditions: human recombinant TDO2, L-Trp 1 mM, kynurenine absorbance at 480 nm
Sequence (P48775 whole entry): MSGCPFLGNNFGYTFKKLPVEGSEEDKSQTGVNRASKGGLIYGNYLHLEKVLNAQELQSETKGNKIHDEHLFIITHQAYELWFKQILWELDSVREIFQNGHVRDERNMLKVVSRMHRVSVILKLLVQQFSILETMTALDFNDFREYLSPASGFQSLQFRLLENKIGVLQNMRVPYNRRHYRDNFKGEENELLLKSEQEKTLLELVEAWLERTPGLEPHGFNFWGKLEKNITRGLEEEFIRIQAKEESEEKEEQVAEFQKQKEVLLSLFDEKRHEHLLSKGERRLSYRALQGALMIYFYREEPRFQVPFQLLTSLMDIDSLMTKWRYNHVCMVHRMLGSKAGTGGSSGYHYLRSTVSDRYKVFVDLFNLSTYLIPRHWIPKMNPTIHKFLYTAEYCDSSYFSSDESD
pIC50: −log10 of the molar value.
readout label: pIC50

* O=C1NCCN1c1ccc(-c2c[nH]c3cc(F)ccc23)cn1 [Example 78] | 4.80
* CS(=O)(=O)CCCNc1ccc(-c2c[nH]c3cc(F)ccc23)cn1 [Example 22] | 5.92
* CS(=O)(=O)N1CCC(Oc2ccc(-c3c[nH]c4cc(F)ccc34)cn2)CC1 [Example 6] | 5.89
* Fc1ccc2c(-c3ccc(OC4CCNCC4)nc3)c[nH]c2c1 [Example 2] | 6.25
* CS(=O)(=O)NCCCNc1ccc(-c2c[nH]c3cc(F)ccc23)cn1 [Example 21] | 6.21
* CNc1ccc(-c2c[nH]c3cc(F)ccc23)cn1 [Example 34] | 6.54
* CS(=O)(=O)N1CCC(Nc2ccc(-c3c[nH]c4cc(F)ccc34)cn2)CC1 [Example 19] | 6.19
* Fc1cc2[nH]cc(-c3cccnc3)c2cc1F [Example 47, 5,6-difluoro-3-(pyridin-3-yl)-1H-indole] | 5.55
* CCN1CCC(Nc2ccc(-c3c[nH]c4cc(F)ccc34)cn2)CC1 [Example 18] | 5.32
* Nc1ccc(-c2c[nH]c3cc(F)c(F)cc23)cn1 [Example 16] | 5.80
